# assay method text: probe aLefty1 binding on compound microarray – biochemical, small-molecule microarray, 635/667 nm fluorescence, primary screen (AID 1153);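 note: score merges spot fluorescence with signal-to-noise ratio from the scanned slide images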
# test conditions: higher = more signal
I'd be grateful if you could share measured composite z-score for these entries.
Answers are plain numbers.

COCCOC(=O)N1C(=O)[C@@]2(c3ccccc31)[C@H](c1ccccc1OCCO)N1[C@H](c3ccccc3)[C@H](c3ccccc3)OC(=O)[C@H]1[C@@H]2C(=O)N1CCc2cc(OC)c(OC)cc2C1 : 0.433
Cc1ccc(S[C@]2(C(=O)O)CC(=O)N(C3CCCCC3)[C@@H]2c2ccc(CO)cc2)cc1 : -0.672
COCC(=C=CC[C@@H](O)c1ccccc1OCCO)C[C@@H](O)c1ccccn1 : 0.235
O=C(Nc1cc(Br)ccc1C(=O)NCc1cccc(O)c1)c1ccccc1 : 0.388
CC(C)(C)OC(=O)CC[C@]1(C(=O)O)COC(c2ccc(OCCCO)cc2)=N1 : 0.126

// input: 3 compounds below; output: composite z-score for each
1. COc1ccc([Si](C)(C)[C@H]2[C@H](CCO)O[C@@]3(C(=O)N(Cc4cccc(N5CCOC5=O)c4)c4ccccc43)[C@@H]2C)cc1
2. CN(C)CCCN1C(=O)[C@@]2(Cc3ccccc31)c1ccccc1C(=O)N(Cc1ccccc1)[C@H]2c1ccc(CO)cc1
3. CC(C)C[C@@H]1NC(=O)[C@@H]2C[C@H](C(=O)NCc3ccc(F)cc3)[C@H](c3ccc(O)cc3)N2C1=O

Reply:
1: -0.0917; 2: -0.193; 3: -0.0559

* * *

I'd be grateful if you could share measured composite z-score for these entries.
# assay method text: probe aWnt5a binding to arrayed compounds – biochemical, biotinylated probe, 635/667 nm fluorescence, primary screen (AID 1113);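 note: score merges 667 nm fluorescence intensity with signal-to-noise per printed feature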
# test conditions: small-molecule microarray, higher = more signal
Give bare numbers.

// input: 4 molecules below; output: composite z-score for each
1. CC1CC/C=C\[C@H]2OC34C=CCN(Cc5ccccc5)C(=O)[C@H]3N(CCO)C(=O)[C@@H]4C2C(=O)O1 (some centres undefined)
2. O=C1c2ccccc2[C@](Cc2ccccc2I)(C(=O)NCC(F)(F)F)[C@H](c2ccc(CO)cc2)N1Cc1ccccc1
3. CCN(CC)c1ccc(N2CC=CC34O[C@@H]5/C=C\CCCOC(=O)C5[C@H]3C(=O)N(CCCCCO)[C@@H]4C2=O)cc1 (some centres undefined)
4. C=CCNC(=O)[C@H]1[C@@H]2C(=O)O[C@@H](c3ccccc3)[C@@H](c3ccccc3)N2[C@@H](c2ccc(OCCO)cc2)[C@]12C(=O)N(C(=O)OCCOC)c1ccc(C#CC3=CCCCC3)cc12

Reply:
1: 0.0597; 2: -0.155; 3: -0.203; 4: 0.0243

* * *

# assay method text: JC-1 mitochondrial signal, unstimulated MM1S myeloma – cell-based, JC-1 fluorescence, 24 h, 100 nL compound, profiling panel (AID 1170); note: test concentration not given here
# test conditions: MM1S mitochondrial potential, higher = more signal
I'd be grateful if you could share measured z-score for these entries.
Give bare numbers.

Examples with answers:
CC(C)C(CO)N1C(=O)[C@@H]2[C@H]3C(=O)OCC=C[C@H]3OC23C=CCN(Cn2nnc4ccccc42)C(=O)[C@@H]13 (stereo partly drawn) : 0.281
COC(=O)c1ccc(OC)c(/C=C\CC(CCc2ccccc2)OC(C)=O)c1 (stereo not drawn) : 0.893
O=C1O[C@H](c2ccccc2)[C@H](c2ccccc2)N2[C@H]1[C@@H](C(=O)N1CCCCCCC1)[C@]1(C(=O)Nc3ccccc31)[C@H]2c1ccc(O)cc1 : 0.385
CN(C)C(=O)[C@@]1(CCC(=O)OC(C)(C)C)N=C(c2ccc(OCCCO)cc2)O[C@H]1c1ccccc1N=[N+]=[N-] : -0.0283
COc1cccc(C[C@H]2C[C@@H](CO[Si](C(C)C)(C(C)C)C(C)C)N3C(=O)[C@]4(C(C)=O)O[C@]23[C@H]2C(=O)N(C)C(=O)[C@H]24)c1 : -1.96

// input: 8 compounds below; output: z-score for each
1. Cc1ccc(S[C@]2(C(=O)NCCN3CCOCC3)CC(=O)N(C3Cc4ccccc4C3)[C@@H]2c2ccc(CO)cc2)cc1
2. CN(C)CCCNC(=O)[C@@]1(Cc2ccccc2I)c2ccccc2C(=O)N(Cc2ccccc2Cl)[C@H]1c1ccc(CO)cc1
3. C[C@H]1ON(c2ccccc2)[C@@H](c2ccccc2)[C@@H]1C(=O)N1C(=O)OC[C@@H]1c1ccccc1
4. C=CC[C@@]1(C(=O)NCC(O)CO)N=C(c2ccc(OCCCO)cc2)O[C@@H]1c1ccccc1 (stereo partly drawn)
5. COc1cc(C(O)C2C=CC3C(=O)NC(=O)C3N2Nc2ccc(Cl)cc2Cl)cc(OC)c1OC (stereo not drawn)
6. O=C1C2C=CC(C(O)c3ccccn3)N(Nc3ccccc3)C2C(=O)N1c1ccccc1 (stereo not drawn)
7. CCCC=C(CCC)[C@@H](NS(=O)(=O)c1cccc2cccnc12)c1ccc(C(=O)OC)cc1
8. C=C(/C(=C/C[C@@H](OC(C)=O)c1ccccc1OCCO)c1cnc2ccccc2c1)C(C)C

Reply:
[-0.0188, -2.3, -0.127, 1.18, 0.483, -1.11, -1.13, 1.74]

// input: 3 compounds below; output: z-score for each
1. COCCOC(=O)N1C(=O)[C@@]2(c3cc(C#CCCO)ccc31)[C@H](C(=O)NC[C@H](O)c1ccccc1)[C@H]1C(=O)O[C@H](c3ccccc3)[C@H](c3ccccc3)N1[C@@H]2c1ccccc1OCCO
2. COCCOC(=O)N1C(=O)[C@@]2(c3cc(C#Cc4ccc(OC)cc4)ccc31)[C@H](C(=O)N1CCc3cc(OC)c(OC)cc3C1)[C@H]1C(=O)O[C@H](c3ccccc3)[C@H](c3ccccc3)N1[C@@H]2c1ccc(O)cc1
3. O=C1O[C@H](c2ccccc2)[C@H](c2ccccc2)N2[C@H]1[C@@H](C(=O)N1CCN(c3ncccn3)CC1)[C@]1(C(=O)Nc3ccc(C#CCCO)cc31)[C@H]2c1ccccc1OCCO

Reply:
1. -0.424
2. 0.516
3. -0.0117

// input: 5 compounds below; output: z-score for each
1. C=CCNC(=O)[C@H]1[C@@H]2C(=O)O[C@@H](c3ccccc3)[C@@H](c3ccccc3)N2[C@@H](c2ccc(O)cc2)[C@]12C(=O)N(C(=O)OCCOC)c1ccc(C#CC3(O)CCCCCC3)cc12
2. COCCOC(=O)N1C(=O)[C@@]2(c3cc(C#Cc4ccc(OC)cc4)ccc31)[C@H](C(N)=O)[C@H]1C(=O)O[C@H](c3ccccc3)[C@H](c3ccccc3)N1[C@@H]2c1ccc(OCCO)cc1
3. CCC[C@@H]1C[C@@]1(CCC)[C@@H](NC(=O)c1ccco1)c1ccc(Cl)cc1
4. C#CCOC(=O)N[C@H](C=CCCCC)c1ccccc1
5. [N-]=[N+]=NCc1ccccc1C[C@@]1(C(=O)NCCN2CCOCC2)N=C(c2ccc(OCCCO)cc2)O[C@@H]1c1ccccc1CN=[N+]=[N-]

Reply:
1. -0.808
2. -1.39
3. -2.07
4. 0.0811
5. -0.797

// input: 3 compounds below; output: z-score for each
1. [N-]=[N+]=Nc1ccccc1[C@H]1OC(c2ccc(OCCCO)cc2)=N[C@@]1(Cc1ccccc1)C(=O)NCc1ccccc1
2. CCCN1C(=O)[C@@H]2Cc3c([nH]c4ccccc34)[C@@H](c3cccc(O)c3)N2C1=O
3. CC(=O)NCCCC[C@@H]1NC(=O)[C@@H]2C[C@H](C(=O)NCCCC[N+](C)(C)C)[C@H](c3cccc(OCCO)c3)N2C1=O

Reply:
1: -2.17; 2: -0.211; 3: 0.235

// input: 4 compounds below; output: z-score for each
1. CCCc1cc2c(n1Cc1ccc(OC)cc1)C(C)C1CN(C(=O)c3ccccc3)C(C)(C(=O)OC)C21 (stereo not drawn)
2. CC(C)C(CO)N1C(=O)[C@@H]2[C@H]3C(=O)OCC=C[C@H]3OC23C=CCN(CCN2CCOCC2)C(=O)[C@@H]13 (stereo partly drawn)
3. O=C1O[C@H](c2ccccc2)[C@H](c2ccccc2)N2[C@H]1[C@@H](C(=O)N1CCCCCCC1)[C@]1(C(=O)Nc3ccc(C#CCCO)cc31)[C@H]2c1ccc(OCCO)cc1
4. COCCOC(=O)N1C(=O)[C@@]2(c3cc(C#Cc4ccc(OC)cc4)ccc31)[C@H](C(=O)N1CCc3cc(OC)c(OC)cc3C1)[C@H]1C(=O)O[C@H](c3ccccc3)[C@H](c3ccccc3)N1[C@@H]2c1ccc(OCCO)cc1

Reply:
-1.61
0.105
-0.919
-0.919
